B1: library; numbered along this chain (parent)
chain: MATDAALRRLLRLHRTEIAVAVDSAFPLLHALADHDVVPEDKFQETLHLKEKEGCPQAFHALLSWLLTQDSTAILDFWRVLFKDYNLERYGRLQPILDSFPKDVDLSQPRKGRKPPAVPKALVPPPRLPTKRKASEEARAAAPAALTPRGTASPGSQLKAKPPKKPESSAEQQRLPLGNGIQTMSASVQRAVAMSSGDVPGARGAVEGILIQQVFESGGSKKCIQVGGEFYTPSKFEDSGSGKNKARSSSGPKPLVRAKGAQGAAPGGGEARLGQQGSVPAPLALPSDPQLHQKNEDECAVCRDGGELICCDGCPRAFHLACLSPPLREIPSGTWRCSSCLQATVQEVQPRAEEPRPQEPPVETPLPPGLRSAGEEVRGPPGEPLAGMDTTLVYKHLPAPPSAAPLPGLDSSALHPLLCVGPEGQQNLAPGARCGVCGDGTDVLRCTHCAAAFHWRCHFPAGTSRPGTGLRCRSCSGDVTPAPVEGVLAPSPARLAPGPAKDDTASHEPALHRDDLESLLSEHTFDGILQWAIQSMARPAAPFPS

variants of: B1; test: AIRE transcriptional activation functional score (insulin promoter-GFP; nonsense median 0, synonymous median 1) (normalised score); higher = higher AIRE activity (more reporter activation); conditions: with insulin promoter-GFP reporter in HEK293
Listed next: entries and their corresponding AIRE transcriptional activation functional score.
measurementKind: AIRE transcriptional activation functional score

- variantCode: "T151G"
  measValue: 1.36
- variantCode: "A429F"
  measValue: 1.34
- variantCode: "L308K"
  measValue: 0.0443
- variantCode: "G498K"
  measValue: 0.572
- variantCode: "G379Y"
  measValue: 1.47
- variantCode: "S339E"
  measValue: 0.838
- variantCode: "Q346W"
  measValue: 1.73
- variantCode: "Q212D"
  measValue: -0.139
- variantCode: "H448I"
  measValue: 0.59
- variantCode: "C337V"
  measValue: 1.13
- variantCode: "T130D"
  measValue: 0.225
- variantCode: "N86H"
  measValue: -0.275
- variantCode: "G150D"
  measValue: -0.34
- variantCode: "P200H"
  measValue: 1.08
- variantCode: "G305E"
  measValue: 0.782
- variantCode: "P460R"
  measValue: 0.824
- variantCode: "F100P"
  measValue: 1.03
- variantCode: "K395W"
  measValue: 0.234
- variantCode: "E296M"
  measValue: 1.14
- variantCode: "I528M"
  measValue: 0.456
- variantCode: "L470A"
  measValue: 1.02
- variantCode: "P325Q"
  measValue: 0.938
